Assignment: determine reported max response for the given compounds.
Test: qHTS Assay for Lipid Storage Modulators (AID 1519)
Conditions: Drosophila S3 cells, BODIPY lipid droplet/cell ratio, laser cytometry; measured here: lipid channel max response; cells loaded with oleic acid
Inconclusive results are not listed.
Give bare numbers, in %.

Provide the reported max response of each entry below, same order.
1. CCC(=C(CC)c1ccc(O)cc1)c1ccc(O)cc1
2. CC1(C)OC2CC3C4CC(F)C5=CC(=O)C=CC5(C)C4C(O)CC3(C)[C@]2(C(=O)CO)O1 (some centres undefined)
3. CCNC(=O)[C@H]1O[C@@H](n2cnc3c(N)nc(NCCc4ccc(CCC(=O)O)cc4)nc32)[C@H](O)[C@H]1O
4. CS(=O)(=O)c1ccc(C2=C(c3ccccc3)C(=O)OC2)cc1
5. OC(c1cc(C(F)(F)F)nc2c(C(F)(F)F)cccc12)C1CCCCN1 (centres undefined)

1. -23.1
2. 23.9
3. -7.25
4. 35.2
5. 10.3

Provide the reported max response of each entry below, same order.
1. Nc1ccn([C@@H]2O[C@H](CO)[C@@H](O)[C@H]2O)c(=O)n1
2. CN(C)CCN(Cc1ccc(Cl)cc1)c1ccccn1
3. CN[C@H]1[C@@H](O[C@@H]2[C@H](O[C@@H]3[C@@H](O)[C@@H](O)[C@@H](N=C(N)N)[C@@H](O)[C@@H]3N=C(N)N)O[C@H](C)[C@@]2(O)C=O)O[C@@H](CO)[C@@H](O)[C@H]1O
4. CC(NCCc1ccc(O)cc1)C(O)c1ccc(O)cc1 (centres undefined)

1: -19.1; 2: -15.8; 3: 7.05; 4: 20
